Test system: DU-145
assay-comment: Growth inhibition of human DU145 cells incubated for 48 hrs by sulforhodamine B assay
Assay type: functional, cell-based
measurement-setup: DU-145, 48 h, read-out: pLC50 (the source's name) (converted)
experimental-readout: CC50 (µM)
Report the value in µM with no unit label.

Here is how some compounds turned out for CC50.
- item-smiles: "O=C(Nc1cccc(-n2cc(-c3ccncc3)c(-c3cc(O)cc(Cl)c3)n2)c1)Nc1ccc(Cl)c(C(F)(F)F)c1"
  unit-info: "µM"
  CC50: 56.2
- item-smiles: "COc1cc(Cl)cc(-c2nn(-c3cccc(NC(=O)Nc4ccc(Cl)c(C(F)(F)F)c4)c3)cc2-c2ccncc2)c1"
  unit-info: "µM"
  CC50: 56.2

Enquiry: For DU-145, provide CC50 of COc1cc(Cl)cc(-c2nn(-c3cccc(NC(=O)Nc4cc(C(F)(F)F)cc(C(F)(F)F)c4)c3)cc2-c2ccncc2)c1 please.
Return: 38.9

###

System: UO-31
assay-comment: Growth inhibition of human UO31 cells assessed as cell growth at 1 uM incubated for 48 hrs by sulforhodamine B assay relative to control
Assay type: functional
measurement-setup: UO-31, 48 h, read-out: Activity
experimental-readout: growth at 1 µM (%)
Report the value in % with no unit label.

Here is how some molecules turned out for growth at 1 µM.
- item-smiles: "O=C(Nc1cccc(-n2cc(-c3ccncc3)c(-c3cc(O)cc(Cl)c3)n2)c1)Nc1ccc(Cl)c(Cl)c1"
  growth at 1 µM, %: 78
- item-smiles: "COc1cc(Cl)cc(-c2nn(-c3cccc(NC(=O)Nc4ccc(Cl)c(Cl)c4)c3)cc2-c2ccncc2)c1"
  growth at 1 µM, %: 88
- item-smiles: "COc1cc(Cl)cc(-c2nn(-c3cccc(NC(=O)Nc4ccc(Cl)c(C(F)(F)F)c4)c3)cc2-c2ccncc2)c1"
  growth at 1 µM, %: 64

Field: next molecule
Enquiry: For UO-31, provide growth at 1 µM of COc1cc(Cl)cc(-c2nn(-c3cccc(NC(=O)c4ccc(N5CCOCC5)c(C(F)(F)F)c4)c3)cc2-c2ccncc2)c1 please.
Return: 52

###

Tested on: OVCAR-4
assay-comment: Growth inhibition of human OVCAR4 cells incubated for 48 hrs by sulforhodamine B assay
Assay type: functional, cell-based
measurement-setup: OVCAR-4, 48 h, read-out: GI50
experimental-readout: GI50

Here is how some molecules turned out for GI50.
- item-smiles: "COc1cc(Cl)cc(-c2nn(-c3cccc(NC(=O)c4cccc(C(F)(F)F)c4)c3)cc2-c2ccncc2)c1"
  GI50: "> 100000 nM"
- item-smiles: "COc1cc(Cl)cc(-c2nn(-c3cccc(NC(=O)Nc4cccc(C(F)(F)F)c4)c3)cc2-c2ccncc2)c1"
  GI50: "2540 nM"
- item-smiles: "COc1cc(Cl)cc(-c2nn(-c3cccc(NC(=O)Nc4ccc(Cl)c(Cl)c4)c3)cc2-c2ccncc2)c1"
  GI50: "2000 nM"

Field: next molecule
Enquiry: For the molecule shown here, O=C(Nc1cccc(-n2cc(-c3ccncc3)c(-c3cc(O)cc(Cl)c3)n2)c1)Nc1ccc(Cl)c(Cl)c1 , give the reported GI50.
Return: 2900 nM

###

System: NCI-H322M
assay-comment: Growth inhibition of human NCI-H322M cells incubated for 48 hrs by sulforhodamine B assay
Format: functional, cell-based
experimental-readout: IC50
Provide the measurement as a number trailed by its unit.

Enquiry: For the compound shown here, COc1cc(Cl)cc(-c2nn(-c3cccc(NC(=O)Nc4cc(C(F)(F)F)cc(C(F)(F)F)c4)c3)cc2-c2ccncc2)c1 , give the reported IC50.
Return: 930 nM
